protocol: amyloid nucleation score (Sup35N fusion, yeast selection) (log enrichment); library NNK1; higher = more nucleation; inactive = no reads after selection;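 note: zero at mode of non-aggregating sequences after 7 days selection at 30°C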
# key: entry, value: amyloid nucleation score
Just the number, please, no unit attached.

Study these solved cases before continuing.
| substance | observed.measurement |
| --- | --- |
| GQIGACVPLIGVAMGYLS | -0.418 |
| VSNTHVNGGWSRRNGQWLGV | -0.708 |
| TYDALRGYNYHLWSNQFTFY | 4.84 |
| VHWIWGF | 0.228 |
| DTGGLYLERARQFKASMFLR | 0.229 |
| RSSKGIPLMENPLVYTMASR | 0.005 |
| DKFLRWVNNVCFKSWTAIAP | 0.609 |
| AFEFKRLRIACVNDGQINLG | 2.43 |

Data request: Sample VQHRIISLALVYNTYNFSFS — what was its amyloid nucleation score?
Data returned: 8.02

Data request: Sample SYSKGGMSPFWWTTHRCDIM — what was its amyloid nucleation score?
Data returned: 2.09

Data request: Sample TDSILKRYGMSFDFWRSWRN — what was its amyloid nucleation score?
Data returned: 0.76

Data request: Sample VCRLGSNPVQWVGPGSSVFC — what was its amyloid nucleation score?
Data returned: 1.23

Data request: Sample MDPTEEE — what was its amyloid nucleation score?
Data returned: -0.573

Data request: Sample RVWYCRGMCRP — what was its amyloid nucleation score?
Data returned: -0.239

---

protocol: amyloid nucleation score (Sup35N fusion, yeast selection) (log enrichment); library NNK2; higher = more nucleation; inactive = no reads after selection
measured.metric: amyloid nucleation score

| item.sequence | observed.measurement |
| --- | --- |
| ALINHWNLVTFS | inactive |
| WCHTGKRINFPFICFLWFWC | inactive |
| FVPFYYKADKLTILSS | inactive |

---

protocol: amyloid nucleation score (Sup35N fusion, yeast selection) (log enrichment); library NNK2; higher = more nucleation; inactive = no reads after selection
measured.metric: amyloid nucleation score
Just the number, please, no unit attached.

Data request: Sample MEEGRS — what was its amyloid nucleation score?
Data returned: 0.525

Data request: Sample VVDGLRATAH — what was its amyloid nucleation score?
Data returned: 0.366

---

protocol: amyloid nucleation score (Sup35N fusion, yeast selection) (log enrichment); library NNK1; higher = more nucleation; inactive = no reads after selection
measured.metric: amyloid nucleation score
Just the number, please, no unit attached.

| item.sequence | amyloid nucleation score |
| --- | --- |
| YDYSLCANIMNRYHAK | 0.333 |

Data request: Sample VKFIGYFLRNTSSSSCTSDP — what was its amyloid nucleation score?
Data returned: 0.097

Data request: Sample GTFSDAFVLLIFCLYGINYL — what was its amyloid nucleation score?
Data returned: 1.54

---

protocol: amyloid nucleation score (Sup35N fusion, yeast selection) (log enrichment); library NNK3; higher = more nucleation; inactive = no reads after selection
measured.metric: amyloid nucleation score

| substance | measured.metric | observed.measurement |
| --- | --- | --- |
| GSLCFGLDSSPSTKIYLYDS | amyloid nucleation score | inactive |
| TRISMSENKVVKREVVATRR | amyloid nucleation score | inactive |
| HNSYRED | amyloid nucleation score | inactive |
| FISLPWYCQLVMVRDTSIIK | amyloid nucleation score | inactive |
| RIIAGWTYRSSQIWYFRDPH | amyloid nucleation score | inactive |
| LNYEIWNISRFRTFFTGVSA | amyloid nucleation score | -0.332 |

Data request: Sample WSSFPFCSRVYVQTWIDLTN — what was its amyloid nucleation score?
Data returned: 1.52

Data request: Sample LLRKRHVLNTK — what was its amyloid nucleation score?
Data returned: inactive

Data request: Sample LGSLVLLRFWY — what was its amyloid nucleation score?
Data returned: -0.181

Data request: Sample NPRNMTPSLVFTDWLS — what was its amyloid nucleation score?
Data returned: inactive

Data request: Sample ASIHMFVLYRWSFG — what was its amyloid nucleation score?
Data returned: 0.013

Data request: Sample YFINKMILIDPL — what was its amyloid nucleation score?
Data returned: inactive

Data request: Sample RCFYKRYNYLS — what was its amyloid nucleation score?
Data returned: inactive

Data request: Sample SEHDDGMVSPKTHTVGSYTC — what was its amyloid nucleation score?
Data returned: inactive

Data request: Sample ACFVKY — what was its amyloid nucleation score?
Data returned: inactive

Data request: Sample LNLVRNWTISAAGKVALKWS — what was its amyloid nucleation score?
Data returned: inactive
